System: NCI/ADR-RES ovarian
Assay: NCI tumour cell line growth inhibition, 48 h
measured.parameter: TGI (µM)
Answers are plain numbers, in µM.

* N=C(N)SCc1ccc(N=C=S)cc1 | 43

Now look at this one.
Inquiry: Name the recorded TGI of the item `COc1ccc2[nH]c(O)c(/C=c3/ccc4c(c3)N=C(c3ccc(F)cc3)N=4)c2c1` in your answer.
Reply text: 24.4

* * *

Exercise: for every item that follows, state its recorded TGI.
Test system: IGROV1 ovarian
Assay: NCI tumour cell line growth inhibition, 48 h

- CC(=O)OCCOCCN1CCN(c2c(O)c3c(c(O)c2Cl)C(=O)C=CC3=O)CC1: 3.04 µM
- CC(=O)c1ccc2c(c1)N(CCCN(C)C)c1ccccc1S2: 44 µM

Provide TGI for all items below, preserving their order.
1. O=C1CCC2(c3ccccc3)Nc3ccc(Cl)cc3N12 (configuration not stated)
2. CC1=C/C(=C2/N=C(N(C)C)SS2)C(C)=N1
3. C=CCN1C[C@@H](C)N([C@@H](c2ccc(C(=O)N(CC)CC)cc2)c2cccc(OC)c2)C[C@@H]1C
4. COC1=CC(=O)NCCN1

Reply text:
["> 100 µM", "> 100 µM", "> 100 µM", "> 100 µM"]

Provide TGI for all items below, preserving their order.
1. CCCCCSC1C2C(=O)C(Br)=CC13CCNc1c(O)c4c5c(c13)=[N+]2CCC=5C=N4 (configuration not stated)
2. C[n+]1c(/C=C/c2ccc(/C=N/NC(=O)c3ccc(C(=O)N/N=C/c4ccc(/C=C/c5cn6ccccc6[n+]5C)cc4)cc3)cc2)cn2ccccc21
3. O=S(=O)(/N=C(\NO)Nc1ccc(Cl)cc1)C1CC=C(c2ccon2)S1 (configuration not stated)
4. Cc1ccc(C(=O)N=Nc2c(O)[nH]c3ccc(Cl)cc23)cc1

Reply text:
1. 3.61 µM
2. > 100 µM
3. > 72.3 µM
4. > 50 µM

Provide TGI for all items below, preserving their order.
1. Cc1ncc(-c2ccnc(Nc3ccc(S(C)(=O)=O)cc3)n2)n1C(C)C
2. O=C1Nc2ccccc2/C1=C\c1c(Cl)nc2n1CCS2

Reply text:
> 7.91 µM
> 100 µM

Provide TGI for all items below, preserving their order.
1. CCN(Cc1cccc(F)c1F)c1ccc(CO)c(Cl)c1
2. COC(=O)C1=COc2c(n(C)c3ccccc23)-c2ccccc21
3. N#C/C(=C\c1cccc2cnccc12)N1N=NC2C=CC=CC21 (configuration not stated)
4. COc1ccc(/C(=N/O)c2cc(OC)c(OC)c(OC)c2)c(OC)c1N
5. Oc1ccccc1C=Nc1ccccc1N=Cc1ccccc1O.[Cu+2]

Reply text:
0.335 µM
> 100 µM
> 100 µM
> 100 µM
20.1 µM

Provide TGI for all items below, preserving their order.
1. Cc1cc2c(=O)[nH]c(N)nc2nc1C
2. O=[N+]([O-])c1ccc(O)c(C=NCC2CCCN3CCCCC23)c1 (configuration not stated)

Reply text:
["> 100 µM", "> 100 µM"]

Provide TGI for all items below, preserving their order.
1. CC(C)N(/C(F)=N\C(=O)Nc1ccccc1C(F)(F)F)C(C)C
2. CCn1c(=O)c2c3cc(OC(C)=O)ccc3oc2c2ccc(OC(C)=O)cc21

Reply text:
["> 100 µM", "> 100 µM"]

Inquiry: State measured TGI of the compound `COc1ccc(-c2nnc(Nc3nc(O)c(C4=c5cc(F)ccc5=NC4=O)s3)o2)cc1` with IGROV1 ovarian.
Reply text: 51.4 µM
